Please go through the items and note down their self-cleavage.
B1: HDV Ribozyme (parent)
chain: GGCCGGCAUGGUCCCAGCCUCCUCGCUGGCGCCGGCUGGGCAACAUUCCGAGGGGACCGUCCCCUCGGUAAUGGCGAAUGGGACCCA

Variants of: B1
Test: self-cleavage, relative activity (ratio to wild type); higher = more cleavage; co-transcriptional

Record C32U C86A , field self-cleavage: 0.69

Record C19A G52C , field self-cleavage: 0.125

Record G28U C58A , field self-cleavage: 0.208

Record G40A A56U , field self-cleavage: 1.02

Record C36A C44U , field self-cleavage: 0.208

Record C32A G38U , field self-cleavage: 0.181

Record U9C C30U , field self-cleavage: 0.636

Record U9C G73C , field self-cleavage: 0.291

Record C18G C61U , field self-cleavage: 0.0519

Record C57U C61U , field self-cleavage: 0.843

Record G1C A71U , field self-cleavage: 0

Record C36U G52U , field self-cleavage: 0.72

Record C7A G35C , field self-cleavage: 0.0665

Record U9A U60C , field self-cleavage: 1.02

Record C32U C48A , field self-cleavage: 1.04

Record G59C C66U , field self-cleavage: 0.81

Record G6U C41U , field self-cleavage: 0.259

Record C22A C30A , field self-cleavage: 0.0405

Record C15U U46G , field self-cleavage: 0.499

Record C58G G67A , field self-cleavage: 1.28

Record G38A G82A , field self-cleavage: 0.0482

Record G6U C18G , field self-cleavage: 0

Record C33U G50A , field self-cleavage: 0.774

Record C21G U69G , field self-cleavage: 0

Record G2U C18U , field self-cleavage: 0.0755

Record C24G C85U , field self-cleavage: 0.107

Record G6C G53C , field self-cleavage: 0.32

Record G2C G28C , field self-cleavage: 0.0475

Record C61A A77U , field self-cleavage: 0.389

Record G17A C44G , field self-cleavage: 0.268

Record A56U G73A , field self-cleavage: 0.752

Record A43G G81U , field self-cleavage: 0.138

Record U60A U72A , field self-cleavage: 0.739

Record G73U G80C , field self-cleavage: 0.2

Record U20C C30G , field self-cleavage: 0.447

Record A16C G55A , field self-cleavage: 0.554

Record G29U G54A , field self-cleavage: 0.189

Record C57A U79G , field self-cleavage: 0.831

Record G25A G73C , field self-cleavage: 0.113

Record U72C G73A , field self-cleavage: 0.407

Record U9A U23A , field self-cleavage: 1.12

Record C36A A77G , field self-cleavage: 0.0791

Record U12G C85U , field self-cleavage: 0.787

Record C3G G82A , field self-cleavage: 0.19

Record G1C G11A , field self-cleavage: 0.0652

Record A45U G80A , field self-cleavage: 0.205

Record G25A C63A , field self-cleavage: 0.125

Record U60C A70G , field self-cleavage: 1.15

Record U69C G82A , field self-cleavage: 0.246

Record G5U C15U , field self-cleavage: 0.723

Record G5C G10C , field self-cleavage: 0

Record G29A U46A , field self-cleavage: 0.156

Record U12C A43U , field self-cleavage: 0.0923

Record U12C C66G , field self-cleavage: 0.356

Record G67U C75A , field self-cleavage: 0.0426

Record C15G G34C , field self-cleavage: 0

Record G17C G38C , field self-cleavage: 0.0831

Record C19U G67C , field self-cleavage: 0.0715

Record U23A C26A , field self-cleavage: 1.23

Record C41A U69A , field self-cleavage: 0.831

Record A45C A56C , field self-cleavage: 0.712

Record C26A G35U , field self-cleavage: 0.619

Record G17A G29C , field self-cleavage: 0.0405

Record C48G G67A , field self-cleavage: 0.91

Record A70C C84G , field self-cleavage: 0.323

Record C30U A70G , field self-cleavage: 0.8

Record U20G C36A , field self-cleavage: 0

Record C22G A71U , field self-cleavage: 0.0923

Record U60G U65A , field self-cleavage: 0.95

Record G34C A56G , field self-cleavage: 0.142

Record A16G C26G , field self-cleavage: 0.831

Record C24G G55A , field self-cleavage: 0.166

Record A16G G17U , field self-cleavage: 0.643

Record U9G G59C , field self-cleavage: 1.06

Record C21A A77U , field self-cleavage: 0
